test system: MDA-MB-468 breast; experiment: NCI tumour cell line growth inhibition, 48 h
As shown below, each of these compounds has a reported TGI value.
Answer with a number only, understood to be in µM.

compound | TGI (µM)
O=C(/C=C/c1ccc(C(F)(F)F)cc1)Nc1ccc(C=C2c3ccccc3C(=O)c3ccccc32)cc1 | 20.8
CC(Nc1c(C#N)cnc2ccc(-c3cncc(-c4n[nH]c(=O)o4)c3)cc12)c1ccccc1 (stereo not drawn) | 3.66
C1=C/COCc2cc(ccc2OCCN2CCCC2)Nc2nccc(n2)-c2ccc(o2)COC/1 | 3.18

Find the recorded TGI belonging to CCCCCCCCOC(=O)c1c(C)[nH]c(/C=C2\N=C(c3ccc[nH]3)C=C2OC)c1C and report it.
2.67

Find the recorded TGI belonging to Cc1ncc(C(=O)Nc2ccc(CN3CCN(C)CC3)c(C(F)(F)F)c2)cc1C#Cc1ccc(N)nc1 and report it.
2.12

Find the recorded TGI belonging to CN(C)CCNC(=O)c1ccc(-c2nc3ccc4[nH]ncc4c3c3c2C2CCC3C2)cc1 (stereo not drawn) and report it.
3.14

Find the recorded TGI belonging to CCn1c(-c2cc3c([nH]c4ccccc43)c(-c3cccc(O)c3)n2)n[nH]c1=S and report it.
15.2

Find the recorded TGI belonging to CSc1ccc(/C(=N/N=C(N)N)c2ccccc2)cc1 and report it.
8.6

Find the recorded TGI belonging to CCN1CCN(Cc2ccc(NC(=O)Nc3nc4ccc(Oc5ccnc(C(=O)NC)c5)cc4s3)cc2C(F)(F)F)CC1 and report it.
3.2

Find the recorded TGI belonging to c1cc(-c2nnc(SSc3ncnc4nc[nH]c34)o2)ccn1 and report it.
0.967

These measurements were taken from PubChem BioAssay (NCI).
